Each entry below carries its reported Activity.
- System: Rattus norvegicus
- experiment: Antihyperlipidemic activity in high fat diet-induced hyperlipidemic Sprague-Dawley rat assessed as blood cholesterol level at 250 mg/kg, po after 7 days (reference value: 121.5 +/- 1.335 mg/dl)
- Assay type: functional

| compound | Activity [mg/dL] |
| --- | --- |
| CC(C)(Oc1ccc(-c2csc(NC(=O)c3ccccc3)n2)cc1)C(=O)O | 96.5 |
| CC(=O)Nc1nc(-c2ccc(OC(C)(C)C(=O)O)cc2)cs1 | 108.3 |
| CC(C)(Oc1ccc(-c2csc(NCC(=O)c3ccc(Cl)cc3)n2)cc1)C(=O)O | 108.3 |
| CC(C)(Oc1ccc(-c2csc(NC(=O)CCl)n2)cc1)C(=O)O | 111.5 |
| CC(C)(Oc1ccc(-c2csc(NC(=O)C(=O)Cl)n2)cc1)C(=O)O | 96.5 |
| CC(C)OC(=O)C(C)(C)Oc1ccc(C(=O)c2ccc(Cl)cc2)cc1 [FENOFIBRATE] | 105.2 |
| CC(C)(Oc1ccc(-c2csc(NC(=O)CC(=O)Cl)n2)cc1)C(=O)O | 116.5 |

* * *

Each entry below carries its reported Activity.
- System: Rattus norvegicus
- experiment: Antihyperlipidemic activity in high fat diet-induced hyperlipidemic Sprague-Dawley rat assessed as blood VLDL level at 250 mg/kg, po after 7 days (reference value: 27 +/- 0.3183 mg/dl)
- Format: functional

| compound | system under test | Activity |
| --- | --- | --- |
| CC(C)(Oc1ccc(-c2csc(NC(=O)CC(=O)Cl)n2)cc1)C(=O)O | Rattus norvegicus | 16.53 mg/dL |
| CC(C)(Oc1ccc(-c2csc(NC(=O)c3ccccc3)n2)cc1)C(=O)O | Rattus norvegicus | 15.47 mg/dL |
| CC(C)(Oc1ccc(-c2csc(NC(=O)C(=O)Cl)n2)cc1)C(=O)O | Rattus norvegicus | 15.47 mg/dL |
| CC(=O)Nc1nc(-c2ccc(OC(C)(C)C(=O)O)cc2)cs1 | Rattus norvegicus | 16.1 mg/dL |
| CC(C)(Oc1ccc(-c2csc(NC(=O)CCl)n2)cc1)C(=O)O | Rattus norvegicus | 17.1 mg/dL |
| CC(C)OC(=O)C(C)(C)Oc1ccc(C(=O)c2ccc(Cl)cc2)cc1 [FENOFIBRATE] | Rattus norvegicus | 14.67 mg/dL |
| CC(C)(Oc1ccc(-c2csc(NCC(=O)c3ccc(Cl)cc3)n2)cc1)C(=O)O | Rattus norvegicus | 16.23 mg/dL |
